B1: SMARCE1 (parent)
chain: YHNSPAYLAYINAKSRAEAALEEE

- Variants of: B1
- protocol text: protein stability index of a GFP-peptide fusion (GPS, HEK-293T) (PSI 1-6); higher = more stable;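 further: lentivirally expressed fusions sorted by FACS into six bins by GFP to DsRed ratio, PSI derived from sequencing read proportions per bin multiplied by bin number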
- condition summary: c terminus: a fixed tail appended
// false strictly below 2 in protein stability index; true otherwise

Example results:
> print(dat)
   mutation.notation  category.label
1                Y1V            true
2                A9T            true
3               A13G            true

Task: Record L8D ; criterion: protein stability index no lower than 2. Met?
Result: true

Task: Check L8H too.
Result: true

Task: Check K14T too.
Result: true

Task: Check A9W too.
Result: true

Task: Check S4M too.
Result: true

Task: Check K14R too.
Result: true

Task: Check S15E too.
Result: true

Task: Check P5K too.
Result: true

Task: Check I11R too.
Result: true

The reported measurements were obtained from the supplement of paper PMC10567573.
